- Tested on: RT112
- PROTOCOL_SUMMARY: Proliferation assay, bladder cancer cell line RT112
- Type: cell-based
- CONDITION_NOTES: Homo sapiens, RT-112; 72 h culture, CyQuant proliferation assay
READOUT_TYPE: IC50

Let me check: [2H]C([2H])([2H])C(O)(CCC[C@@H](CC#CC(O)(C(F)(F)F)C(F)(F)F)C1CCC2/C(=C/C=C3C[C@@H](O)C[C@H](O)C3)CCC[C@@]21C)C([2H])([2H])[2H] (some centres unmarked) , system RT112, measured IC50 is 7 µM

Let me check: C=C1/C(=C\C=C2/CCC[C@]3(C)[C@@H]([C@@H](CCCC(C)(C)O)CC[C@@H](O)C(C)(C)O)CC[C@@H]23)C[C@@H](O)C[C@@H]1O , system RT112, measured IC50 is 1 µM

Let me check: [2H]C([2H])([2H])C(O)(CCC[C@@H](CC#CC(O)(C(F)(F)F)C(F)(F)F)C1CCC2/C(=C/C=C3/C[C@@H](O)C[C@H](O)C3=C)CCC[C@@]21C)C([2H])([2H])[2H] (some centres unmarked) , system RT112, measured IC50 is 6.4 µM

Let me check: C=C1/C(=C\C=C2/CCC[C@]3(C)[C@@H]([C@H](C)CCCC(C)(C)O)CC[C@@H]23)C[C@@H](O)C[C@@H]1O [1,25(OH)2D3, reference compound] , system RT112, measured IC50 is 19 µM

Let me check: CC(C)(O)CCC[C@@H](CC[C@@H](O)C(C)(C)O)[C@H]1CC[C@H]2/C(=C/C=C3C[C@@H](O)C[C@H](O)C3)CCC[C@]12C , system RT112, measured IC50 is 44 µM

Let me check: C=C1/C(=C\C=C2/CCC[C@]3(C)[C@@H]([C@H](CCCC(C)(C)O)CC[C@@H](O)C(C)(C)O)CC[C@@H]23)C[C@@H](O)C[C@@H]1O , system RT112, measured IC50 is 25 µM

Let me check: C=C1/C(=C\C=C2/CCC[C@]3(C)[C@@H]([C@@H](CCCC(C)(C)O)CCC(=O)C(C)(C)O)CC[C@@H]23)C[C@@H](O)C[C@@H]1O , system RT112, measured IC50 is 25.5 µM

Let me check: CC(C)(O)CCC[C@@H](CCC(=O)C(C)(C)O)[C@H]1CC[C@H]2/C(=C/C=C3C[C@@H](O)C[C@H](O)C3)CCC[C@]12C , system RT112, measured IC50 is > 30 µM

Sourced from patent US20080280859A1
